# Target under test: RSV F protein of subtype B strain 18537, on virus (respiratory syncytial virus subtype B …, UniProt P13843 26-574)
# Sequence (P13843 26-574): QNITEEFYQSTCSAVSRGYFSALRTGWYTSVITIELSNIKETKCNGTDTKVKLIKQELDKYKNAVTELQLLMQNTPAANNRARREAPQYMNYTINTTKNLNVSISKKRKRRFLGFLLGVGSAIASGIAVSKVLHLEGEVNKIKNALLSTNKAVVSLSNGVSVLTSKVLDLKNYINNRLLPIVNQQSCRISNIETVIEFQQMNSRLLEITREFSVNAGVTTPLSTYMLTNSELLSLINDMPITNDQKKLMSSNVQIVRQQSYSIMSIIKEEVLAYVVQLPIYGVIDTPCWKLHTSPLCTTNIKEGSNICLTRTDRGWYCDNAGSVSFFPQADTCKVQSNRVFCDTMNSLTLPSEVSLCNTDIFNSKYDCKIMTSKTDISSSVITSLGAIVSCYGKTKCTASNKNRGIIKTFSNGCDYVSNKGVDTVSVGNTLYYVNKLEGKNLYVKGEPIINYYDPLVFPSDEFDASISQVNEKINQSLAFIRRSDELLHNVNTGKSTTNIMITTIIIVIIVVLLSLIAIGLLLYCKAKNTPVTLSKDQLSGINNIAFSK
# Experimental protocol: cell-based or functional assay

{"Binder": "ADI-15632 (antibody, V domains shown, IgG; also called Antibody Number 197) VH: QVQLVQSGGGLVQPGRSLRLSCTASGFSFSDYGVTWVRQAPGKGLEWIGFVRTKGYGGTTEYAASVRGRFTISRDDSKSVAYLQLNSLKVEDTAVYYCSGASRGFWSGPTYYYFGMDVWGHGTTVTVSS VL: EIVLTQSPLSLAVTPGEPASISCRSSQSLLHGNGYNYLDWYLQKPGQSPQLLIFWGSYRASGAPDRFSASGSGSEFTLKIRRVEAEDVGVYYCMQPLQTTFGQGTKVDIK", "Neut IC50 (ug/ml) subtype B": "5.72 µg/mL"}
{"Binder": "ADI-15605 (antibody, V domains shown, IgG) VH: QVQLVQSGPEVKKPGESLKISCKGSGYTFTTYWIGWVRQRPGKGLEWMGIIHPGDSDTRYSPSLQGQVTISVDKSINTAYLQWRSLKASDTGMYYCARFEYGDFGNDFWGQGTLVTVSS VL: NFMLTQPHSVSESPGKTVTISCSRSSGSIANNYVQWYQQRPGSSPTTVIYEDNQRPSGVPDRFSGSIDSSSNSASLTISGLKTEDEADYYCQSYDSSNHRVFGGGTKLTVL", "Neut IC50 (ug/ml) subtype B": "> 10 µg/mL"}
{"Binder": "ADI-15647 (antibody, V domains shown) VH: QVQLVQSGAEVKKPGSSVRVSCEASGGTFSTYAISWVRQAPGLGLEWMGGIHPISGTANYAQSFQDRLTITVDKSTSTAYMDLSSLRSEDTAIYYCARVGLGRTWIYDTMGYLDYWGQGTLVTVSS VL: EIVLTQSPATLSLSPGERVTLSCRASQSVNDYLAWYQQKPGQAPRLLIYDASNRATGIPARFSGSGSGTDFTLTISSLEPEDFAVYYCQHRTNWPSLTFGGGTKVEIK", "Neut IC50 (ug/ml) subtype B": "> 10 µg/mL"}
